Measured inhibition at 1 µM by item
Target: human CCR5 (Homo sapiens)
Construct: expressed in transfected cells; whole cells in the well
Sequence (P51681 whole entry): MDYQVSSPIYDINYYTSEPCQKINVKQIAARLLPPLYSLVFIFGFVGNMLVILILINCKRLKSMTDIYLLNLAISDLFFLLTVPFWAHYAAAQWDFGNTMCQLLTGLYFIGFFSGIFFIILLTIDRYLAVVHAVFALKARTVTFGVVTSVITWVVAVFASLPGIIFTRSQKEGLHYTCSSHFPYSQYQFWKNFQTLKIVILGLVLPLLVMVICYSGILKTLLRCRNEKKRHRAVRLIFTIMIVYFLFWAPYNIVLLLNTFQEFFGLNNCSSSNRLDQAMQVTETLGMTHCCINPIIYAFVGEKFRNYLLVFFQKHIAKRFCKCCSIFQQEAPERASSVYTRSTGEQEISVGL
Assay: CCR5 binding assay: inhibition of [125I]-RANTES binding to CHO/CCR5 cells
Details: 1.0 μM test compound, 100 pM [125I]-RANTES, room temperature 40 minutes, read-out: Inhibition Rate (%) at 1.0 μM
Structures can show the parent of a compound that is named as a salt.
Answer format: numeric, % implied, no suffix.

# molecule, inhibition at 1 µM / %
measured = [
    ("CC(=O)N1CCC(C(=O)N(CCCN2CCC(Cc3ccc(S(N)(=O)=O)cc3)CC2)c2ccc(Cl)c(Cl)c2)CC1", 99),
]

Q. Fill in inhibition at 1 µM for record CC(C)S(=O)(=O)N1CCC(C(=O)N(CCCN2CCC(Cc3ccc(F)cc3)CC2)c2ccc(Cl)c(Cl)c2)CC1 [Example 92, Trifluoroacetate]
A. 92

Q. Output inhibition at 1 µM of CS(=O)(=O)N1CCC(C(=O)N(CCCN2CCC(S(=O)(=O)c3ccc(F)cc3)CC2)c2ccc(Cl)c(Cl)c2)CC1
A. 100
